Conditions: 303.15 K; 100 kPa; Liquid; Vibrating tube method
Metric Name: mass density (kg/m3)

C=CCCn1cc[n+](C)c1.[Br-] [1-(3-butenyl)-3-methylimidazolium bromide]; 1339.41
C=CCCn1cc[n+](CC)c1.[Br-] [1-(3-butenyl)-3-ethylimidazolium bromide]; 1290.54
CCCCCC[n+]1ccn(C)c1.O=S(=O)([N-]S(=O)(=O)C(F)(F)F)C(F)(F)F; 1367.65
C=CCCn1cc[n+](CCCC)c1.[Br-] [1-(3-butenyl)-3-butylimidazolium bromide]; 1214.96

###

Conditions: 313.15 K; 100 kPa; Liquid; Vibrating tube method
Metric Name: mass density (kg/m3)

C=CCCn1cc[n+](CC)c1.[Br-] [1-(3-butenyl)-3-ethylimidazolium bromide]; 1283.26
C=CCCn1cc[n+](C)c1.[Br-] [1-(3-butenyl)-3-methylimidazolium bromide]; 1331.9
CCCCCC[n+]1ccn(C)c1.O=S(=O)([N-]S(=O)(=O)C(F)(F)F)C(F)(F)F; 1357.5
O [water]; 992.31
C=CCCn1cc[n+](CCCC)c1.[Br-] [1-(3-butenyl)-3-butylimidazolium bromide]; 1207.96

###

Conditions: 318.15 K; 100 kPa; Liquid; Vibrating tube method
Metric Name: mass density (kg/m3)

C=CCCn1cc[n+](CC)c1.[Br-] [1-(3-butenyl)-3-ethylimidazolium bromide]; 1279.57
C=CCCn1cc[n+](CCCC)c1.[Br-] [1-(3-butenyl)-3-butylimidazolium bromide]; 1204.4
O; 990.42
CCCCCC[n+]1ccn(C)c1.O=S(=O)([N-]S(=O)(=O)C(F)(F)F)C(F)(F)F; 1352.61
C=CCCn1cc[n+](C)c1.[Br-] [1-(3-butenyl)-3-methylimidazolium bromide]; 1328.14

###

Conditions: 298.15 K; 100 kPa; Liquid; Vibrating tube method
Metric Name: mass density (kg/m3)

CCCCCC[n+]1ccn(C)c1.O=S(=O)([N-]S(=O)(=O)C(F)(F)F)C(F)(F)F; 1371.8
C=CCCn1cc[n+](CC)c1.[Br-] [1-(3-butenyl)-3-ethylimidazolium bromide]; 1294.11
C=CCCn1cc[n+](CCCC)c1.[Br-] [1-(3-butenyl)-3-butylimidazolium bromide]; 1218.74
C=CCCn1cc[n+](C)c1.[Br-] [1-(3-butenyl)-3-methylimidazolium bromide]; 1343.07

###

Conditions: 323.15 K; 100 kPa; Liquid; Vibrating tube method
Metric Name: mass density (kg/m3)

C=CCCn1cc[n+](CC)c1.[Br-] [1-(3-butenyl)-3-ethylimidazolium bromide]; 1275.88
O; 988.3
CCCCCC[n+]1ccn(C)c1.O=S(=O)([N-]S(=O)(=O)C(F)(F)F)C(F)(F)F; 1349.44
C=CCCn1cc[n+](CCCC)c1.[Br-] [1-(3-butenyl)-3-butylimidazolium bromide]; 1200.81
C=CCCn1cc[n+](C)c1.[Br-] [1-(3-butenyl)-3-methylimidazolium bromide]; 1324.34

###

Details: 293.15 K; 100 kPa; Liquid; Vibrating tube method
Metric Name: mass density (kg/m3)

CCCCCC[n+]1ccn(C)c1.O=S(=O)([N-]S(=O)(=O)C(F)(F)F)C(F)(F)F; 1376.82
C=CCCn1cc[n+](C)c1.[Br-] [1-(3-butenyl)-3-methylimidazolium bromide]; 1346.67
C=CCCn1cc[n+](CC)c1.[Br-] [1-(3-butenyl)-3-ethylimidazolium bromide]; 1297.64
C=CCCn1cc[n+](CCCC)c1.[Br-] [1-(3-butenyl)-3-butylimidazolium bromide]; 1222.43
